B1: Hairpin Ribozyme (parent)
chain: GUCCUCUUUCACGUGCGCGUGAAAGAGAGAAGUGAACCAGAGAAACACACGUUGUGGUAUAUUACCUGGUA

- Variants of: B1
- method-summary: self-cleavage, relative activity (ratio to wild type); higher = more cleavage; co-transcriptional
assay-metric: self-cleavage
# answer = number (no unit)

Reference set, count: 6
INSERT INTO measurements (alteration, reported) VALUES
  ('C38G G54C', 0.12),
  ('C4A G19C', 0.143),
  ('A24G A39G', 0.308),
  ('G15A C48G', 0.0967),
  ('U53C G57U', 0.234),
  ('G40U A61G', 0.186);

From here, focus on the item given below.
(Q) Using the record for A11G G42A , state its measured self-cleavage.
(A) 0.201
